This collection of values is drawn from PubChem BioAssay.

Test: binders of probe aFGF10 on microarray, primary screen, stem cell growth factor project, biochemical, small-molecule microarray, fluorescence 635/667 (AID 1071);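 note: score merges 667 nm spot intensity and signal to noise from triplicate slides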
Conditions: higher = more signal
Provide the recorded composite z-score for the entries that follow.

What does the record list as composite z-score for `COC(=O)[C@@]1(Cc2ccc(OC)cc2)[C@H]2c3cc(C(=O)N4CCCC4)n(CCc4c[nH]c5cc(F)ccc45)c3C[C@H]2CN1C(=O)c1ccccc1` ? 0.71

So what does the record say about composite z-score for `COCCOC(=O)N1C(=O)[C@@]2(c3ccccc31)[C@H](C(=O)Nc1nc3ccccc3s1)[C@H]1C(=O)O[C@H](c3ccccc3)[C@H](c3ccccc3)N1[C@@H]2c1ccc(OCCO)cc1` ? 0.738

Fill blank: measured composite z-score of the compound `Cc1ccc(S[C@]2(C(=O)NCc3ccccc3)CC(=O)N(Cc3ccccc3)[C@@H]2c2ccc(CO)cc2)cc1` is ____. 0.793

---

Experiment: binders of probe aFGF10 on microarray, primary screen, stem cell growth factor project, biochemical, small-molecule microarray, fluorescence 635/667 (AID 1071);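 note: score merges 667 nm spot intensity and signal to noise from triplicate slides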
Conditions: higher = more signal
Could you please report measured composite z-score for the items listed next?

What does the data say about its composite z-score? Entry: CN1C=C(C(=O)OCCS(C)(=O)=O)C(C(=O)OCCS(C)(=O)=O)=CC(CCCO)=CC1C1CC1 (stereo not drawn) 0.427

// returns reported composite z-score for input `C=CC(=C)C1=CCO[C@@H]1[C@H]1CCCN1S(=O)(=O)c1ccccc1[N+](=O)[O-]` 0.138

Returns the measured composite z-score for the input molecule. Input: `CCOC(=O)C[C@H]1[C@H](OC(=O)c2ccc(C(=O)c3ccccc3)cc2)[C@@H](NC(=O)C2CCCCC2)c2cc(OCCCO)ccc2N1C(=O)c1ccccc1` 0.494

# query: composite z-score of entry `CC(=CC1CCCCC1)[C@@H](NC(=O)c1ccc(C(F)(F)F)cc1)c1ccc(-c2ccccc2)cc1` -0.0821

Find the recorded composite z-score belonging to `[N-]=[N+]=NCc1ccccc1C[C@]1(C(=O)O)N=C(c2ccc(OCCCO)cc2)O[C@H]1c1ccccc1` and report it. 0.39

Could you share which composite z-score value was measured for N#Cc1ccc(NN2C(C(O)c3cccs3)C=CC3C(=O)N(c4ccccc4)C(=O)C32)cc1 (stereo not drawn) ? 0.546

I would be grateful if you could share the reported composite z-score for `CC(C)C[C@@H]1NC(=O)[C@@H]2C[C@H](C(=O)NCCCCCC[N+](C)(C)C)[C@H](c3ccc(O)cc3)N2C1=O` . 0.154

Sample CC=CC(O)C1C=CC2C(=O)N(c3ccccc3)C(=O)C2N1Nc1ccc(C(C)C)cc1 (stereo not drawn) — what was its composite z-score? 0.771

---

Test system: Sam68 (KHDRBS1)
Assay: Sam68 small-molecule binders, primary screen, biochemical, small-molecule microarray, 635 nm fluorescence (AID 1125);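 note: score merges 667 nm channel intensity with signal to noise over triplicate slides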
Details: small-molecule microarray binding, higher = more signal
Use 1 as the dividing line for composite z-score, with the line itself on the Yes side and lower values as No.

Determine whether measured composite z-score meets or exceeds 1 for `COCCOC(=O)N1C(=O)[C@@]2(c3cc(C#CCNC(N)=O)ccc31)[C@H](C(=O)N1CCN(c3ncccn3)CC1)[C@H]1C(=O)O[C@H](c3ccccc3)[C@H](c3ccccc3)N1[C@@H]2c1ccccc1OCCO` Yes

Would you say `O=c1oc(-c2ccccc2)nc2cc(Br)ccc12` shows composite z-score at minimum 1? No

Tell me whether composite z-score is at least 1 here: `COC(=O)[C@@]1(Cc2ccccc2)[C@H]2c3cc(C(=O)N4CCCC4)n(Cc4ccc(C)o4)c3C[C@H]2CN1C(=O)c1ccccc1` No

Answer whether composite z-score of `COC(=O)[C@@]1(Cc2ccc(OC)cc2)[C@H]2c3cc(C(=O)N(C)C)n(Cc4c(OC)[nH]cc(C)c4=O)c3C[C@H]2CN1C(=O)c1ccccc1` is greater than or equal to 1. No

Assess whether reported composite z-score for `O=C1O[C@@H](c2ccccc2)[C@@H](c2ccccc2)N2[C@@H](c3ccc(O)cc3)[C@]3(C(=O)Nc4ccc(C#CC5(O)CCCCCC5)cc43)[C@@H](C(=O)N3CCCCCCC3)[C@H]12` sits at 1 or higher. Yes

Does the compound `COc1ccc([Si](C)(C)[C@@H]2[C@@H](CC(=O)N3CCC[C@H]3CO)O[C@]3(C(=O)N(C)c4c(Br)cc(C)cc43)[C@H]2C)cc1` have recorded composite z-score that is 1 or more? Yes

---

Molecular target: Pro-neuregulin-1, membrane-bound isoform (Homo sapiens)
Experiment: NRG1 binders on small-molecule microarrays, primary screen, psychiatric disease protein project, biochemical, small-molecule microarray, fluorescence 635/667 (AID 1075);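 note: score combines 667 nm spot fluorescence with signal to noise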
Details: NRG1 binding, 635 nm fluorescence, higher = more signal
ENDPOINT_LABEL: composite z-score
Response field accepts a number only; no unit should be typed.

What does the record list as composite z-score for `CCOC(=O)C[C@H]1[C@H](OC(=O)c2ccc(-c3ccccc3)cc2)[C@@H](NC(=O)c2ccc3ccccc3c2)c2cc(OCCCO)ccc2N1C(=O)Cc1ccc(OC)cc1` ? 0.15

composite z-score for `CC(C)C(=C=CC[C@H](O)c1cccc(OCCO)c1)C[C@H](O)COCc1ccccc1` ? 1.67

Look at this compound and give its reported composite z-score. CN1CCC(CCCO)=CC1c1ccc(CN2CCCC2)cc1 (stereo not drawn) 1.7

I am curious: what composite z-score value has been reported for `COCCCNC(=O)[C@@]1(C)c2ccccc2C(=O)N(Cc2cc(C(F)(F)F)cc(C(F)(F)F)c2)[C@H]1c1ccc(CO)cc1` ? 1.59

Recorded composite z-score for `COc1ccc(C#Cc2ccc3c(c2)[C@]2(C(=O)N3)[C@H](c3ccc(O)cc3)N3[C@H](c4ccccc4)[C@H](c4ccccc4)OC(=O)[C@H]3[C@@H]2C(=O)NC[C@H](O)c2ccccc2)cc1` , please? 0.563

What value of measured composite z-score is listed for `O=c1cccc(C=Cc2ccccc2)o1` ? -0.458

So what's the measured composite z-score for this one? CC(C)c1ccc(NN2C(C(O)c3c(F)cccc3Cl)C=CC3C(=O)N(c4ccccc4)C(=O)C32)cc1 (stereo not drawn) 1.31

Consider the compound shown here: Cc1cc(C)cc(N2C(=O)CS(=O)(=O)C2c2cccc([N+](=O)[O-])c2)c1 (stereo not drawn) What is its recorded composite z-score? 1.63

---

Assay: binders of probe aFGF2 on microarray, primary screen, stem cell growth factor project, biochemical, small-molecule microarray, fluorescence 635/667 (AID 1067);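 note: measures binding of biotinylated aFGF2 protein to printed compounds on slides; z-score merges feature fluorescence and signal-to-noise across triplicate slides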
Conditions: higher = more signal
Record form. Attribute: composite z-score. Fill in for each entry.
Give the figure only, with no unit attached.

composite z-score lookup needed for `CC(C)NC(=O)[C@@]1(Cc2ccccc2I)c2ccccc2C(=O)N(Cc2ccccc2)[C@H]1c1ccc(CO)cc1` , thanks. -0.017

// returns reported composite z-score for input `CC(C)C[C@@H]1NC(=O)[C@H]2C[C@@H](C(=O)NCCCCCCNC(=O)CS)[C@@H](c3cccc(OCCO)c3)N2C1=O` -0.0493

Entry CCOC(=O)C1=CCC(c2ccc([N+](=O)[O-])cc2)N(S(=O)(=O)c2ccc(C)cc2)C1 (configuration not stated) has what composite z-score? -0.0878

Given the compound `CC(C)CNC(=O)[C@@]1(c2ccc([N+](=O)[O-])cc2)CC(=O)N(CC23CC4CC(CC(C4)C2)C3)[C@@H]1c1ccc(CO)cc1` , what is its reported composite z-score? 0.0201

Look up composite z-score for this compound: `CCOC(=O)C[C@H]1[C@H](OC(=O)c2ccc(C(=O)c3ccccc3)cc2)[C@@H](NC(=O)C2CCCCC2)c2cc(OCCCO)ccc2N1C(=O)c1ccccc1` -0.0478

So what does the record say about composite z-score for `O=c1cccc(C=Cc2ccccc2)o1` ? -0.144

Item `C=CCNC(=O)[C@H]1[C@@H]2C(=O)O[C@@H](c3ccccc3)[C@@H](c3ccccc3)N2[C@@H](c2ccc(O)cc2)[C@]12C(=O)N(C(=O)OCCOC)c1ccc(C#CCCO)cc12` has what recorded composite z-score? -0.154

---

Target: Alpha-bungarotoxin (Bungarus multicinctus) (UniProt P60615)
Sequence (P60615 whole entry, looked up): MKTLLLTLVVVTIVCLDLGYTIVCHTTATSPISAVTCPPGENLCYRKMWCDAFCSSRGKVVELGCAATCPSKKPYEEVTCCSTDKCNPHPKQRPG
Assay: alpha-bungarotoxin binders on microarray, profiling panel, artefact control for SMM control protein annotation, biochemical, small-molecule microarray, Alexa647 label, 635/667 nm fluorescence (AID 1117)
Details: alpha-BTX-A647 binding fluorescence, higher = more signal
ENDPOINT_LABEL: composite z-score
Write the number on its own, no unit after it.

Requested read-out: composite z-score. Entry: `CC(C)C[C@@H]1NC(=O)[C@@H]2C[C@H](C(=O)NCCCCCC[N+](C)(C)C)[C@H](c3ccc(O)cc3)N2C1=O` 2

Given CC(C)N1CC=CC23O[C@@H]4C=CCOC(=O)[C@@H]4[C@H]2C(=O)N(CCO)[C@@H]3C1=O (stereo partly specified) , state its recorded composite z-score. -1.15

Query (compound): `COCCOC(=O)N1C(=O)[C@@]2(c3cc(C#CC4(O)CCCCCC4)ccc31)[C@H](C(=O)N1CCCCCCC1)[C@H]1C(=O)O[C@H](c3ccccc3)[C@H](c3ccccc3)N1[C@@H]2c1ccccc1OCCO` ; field requested: composite z-score 1.49

Give its composite z-score value. Item: CN1C=C(C(=O)OCCS(C)(=O)=O)C(C(=O)OCCS(C)(=O)=O)=CC(CCCO)=CC1C1CC1 (stereo unspecified) 0.198

What value of composite z-score has been reported for the following compound? `COCCOC(=O)N1C(=O)[C@@]2(c3cc(C#CCNC(N)=O)ccc31)[C@H](c1ccccc1OCCO)N1[C@H](c3ccccc3)[C@H](c3ccccc3)OC(=O)[C@H]1[C@@H]2C(N)=O` 1.18

Bench note: what composite z-score did `COc1ccc(C#Cc2ccc3c(c2)[C@]2(C(=O)N3)[C@H](c3ccc(O)cc3)N3[C@H](c4ccccc4)[C@H](c4ccccc4)OC(=O)[C@H]3[C@@H]2C(=O)N2CCCCCCC2)cc1` show? 1.83

Looking for the measured composite z-score of `Cc1ccc([C@H]2C(C(=O)O)=C[C@@H](C)N2S(=O)(=O)c2ccc(C)cc2)cc1` , can you help? 1.57

Fill in the blank: the reported composite z-score of `C=CC[C@@H](OC(=O)Nc1ccc(OC)cc1)c1ccc(O)c2ccccc12` is ____. 0.824

Value lookup for composite z-score; key = CCCCC(CC)C(O)C1C=CC2C(=O)N(c3ccccc3)C(=O)C2N1Nc1ccccc1 (stereo unspecified) 1.1

Using the record for `O=c1oc(-c2ccccc2)nc2cc(Br)ccc12` , report its composite z-score. 0.318

What measured composite z-score goes with C=CCC(OC(C)=O)[C@@H]1[C@@H](N(Cc2cccc3ccccc23)C(=O)c2cccc3ccccc23)c2cc(OCCCO)ccc2N1C(=O)c1ccc2ccccc2n1 (stereo partly specified) ? -0.198

Which composite z-score reading was recorded for the compound COC(=O)c1ccc(C23CC2(C(NP(=O)(c2ccccc2)c2ccccc2)c2ccccc2)C3)cc1 (stereo unspecified) ? 1.38

Data request, read-out composite z-score, for `CCOC(=O)C[C@H]1[C@H](OC(=O)c2ccc(-c3ccccc3)cc2)[C@@H](NC(=O)c2ccc3ccccc3c2)c2cc(OCCCO)ccc2N1C(=O)Cc1ccc(OC)cc1` 0.0773

Item `C=C(CCCC)/C(=C/C[C@H](OC(C)=O)c1ccc(CO)o1)c1cnc2ccccc2c1` has what recorded composite z-score? 1.73

What value of measured composite z-score is listed for O=C1C2C=CC(C(O)c3cccs3)N(Nc3ccccc3F)C2C(=O)N1c1ccccc1 (stereo unspecified) ? 0.825

What composite z-score value was documented for this compound, `Cc1ccc(S[C@]2(C(=O)NC3CC3)CC(=O)N(C3CCCCC3)[C@@H]2c2ccc(CO)cc2I)cc1` ? 0.874

What does the record list as composite z-score for `O=C/C=C/c1ccc(Cl)cc1` ? 0.0933

May I ask what composite z-score has been recorded for [N-]=[N+]=NCc1ccccc1C[C@@]1(C(=O)NCC(O)CO)N=C(c2ccc(OCCCO)cc2)O[C@@H]1c1ccccc1CN=[N+]=[N-] (stereo partly specified) ? 1.5

Please report the recorded composite z-score for COc1cc(C(O)C2C=CC3C(=O)N(c4ccccc4)C(=O)C3N2Nc2ccc(C#N)cc2)cc(OC)c1OC (stereo unspecified) . 2.79

Endpoint output: composite z-score of `O=c1cccc(CCc2ccccc2)o1` . Value? 1.04

Sample `COCCOC(=O)N1C(=O)[C@@]2(c3cc(C#CC4=CCCCC4)ccc31)[C@H](C(=O)N1CCc3cc(OC)c(OC)cc3C1)[C@H]1C(=O)O[C@H](c3ccccc3)[C@H](c3ccccc3)N1[C@@H]2c1ccccc1OCCO` — what was its composite z-score? 0.917

Dear colleague, I am looking for the recorded composite z-score of the following compound: `CC(=O)NCCCC[C@@H]1NC(=O)[C@@H]2C[C@H](C(=O)NCCCCN(C)C)[C@H](c3ccc(O)cc3)N2C1=O` -0.602

Would you mind telling me what composite z-score value was observed for `COCC(=C=CC[C@H](O)c1ccc(OCCO)cc1)C[C@H](O)c1cc(Cl)cc(Cl)c1O` ? 0.155

Give the measured composite z-score of CCCCCN1CC=CC23O[C@@H]4/C=C\CCC(C)OC(=O)C4[C@H]2C(=O)N(CCCCCO)[C@@H]3C1=O (stereo partly specified) . -0.937

Fill blank: measured composite z-score of the compound `CCOC(=O)C1=CC[C@@H](c2ccccc2Cl)N(S(=O)(=O)c2ccc(C)cc2)C1` is ____. 0.407

Reported composite z-score for CC(C)(C)N1CC=CC23O[C@@H]4C=CCOC(=O)[C@@H]4[C@H]2C(=O)N(CCCCCO)[C@@H]3C1=O (stereo partly specified) : what is it? -1.45

Fill blank: measured composite z-score of the compound `O=C1O[C@H](c2ccccc2)[C@H](c2ccccc2)N2[C@H]1[C@@H](C(=O)Nc1nc3ccccc3s1)[C@]1(C(=O)Nc3ccccc31)[C@H]2c1ccc(O)cc1` is ____. 1.27

So what does the record say about composite z-score for CC(C)C(O)C1C=CC2C(=O)N(c3ccccc3)C(=O)C2N1Nc1ccc(C#N)cc1 (stereo unspecified) ? 1.36

For `CC(C)(C)OC(=O)CC[C@]1(C(=O)N2CCCCC2)N=C(c2ccc(OCCCO)cc2)O[C@H]1c1ccccc1N=[N+]=[N-]` , what is its reported composite z-score? 0.823

# get_value(readout='composite z-score', item= O=C1C2C=CC(C(O)c3ccc(F)cc3)N(Nc3ccccc3)C2C(=O)N1c1ccccc1 (stereo unspecified) ) 1.97

Consider the compound shown here: `CN(C)CCCCCCNC(=O)[C@H]1C[C@H]2C(=O)N[C@@H](CCCCN)C(=O)N2[C@H]1c1ccc(O)cc1` What is its recorded composite z-score? 2.42
